Ref: PubChem BioAssay (NCATS)

Test system: PA-1
Assay: Primary qHTS to identify gynecologic anti-cancer compounds using libraries of approved drugs and bioactive compounds (AID 1345084); also: nearly all actives have a fitted effect of over 55% in size
Settings: Gynecologic cancer cell panel viability, ATPlite luminescence, 48 h; series mostly up to 57.5 µM
Results filed as inconclusive are left out. The source made the active and inactive calls. Calls follow the shape of the dose curve; as a rule, active = well fitted cell-killing curve with a large enough effect; inconclusive = small, poorly fitted or top-dose-only effect, or effect the other way; inactive = flat fitted curve, though single readings scatter.
Hello, when you answer, please use one of the following outcomes: active, inactive

Worked examples, 3 compounds total:
1. CC(C)(C)[C@H](NC(=O)c1ccc(N)c(Cl)c1)C(=O)N1CCC[C@H]1C(=O)N[C@H](C#N)CC(=O)O : inactive
2. Cc1csc2c(N[C@@H](C)CN3CCN(S(=O)(=O)c4ccc(Cl)c(Cl)c4)CC3)ncnc12 : inactive
3. CCCCCCCOc1cc2c(cc1/C(C)=C/c1ccc(C(=O)O)cc1)C(C)(C)CCS2(=O)=O : inactive

Check the results log: what was the call for `COC(=O)c1ccc2c(c1)nc(NC(=O)c1ccccc1)n2CCCc1ccccc1` ?
inactive

Check the results log: what was the call for `CCn1c(=O)c(-c2ccc(Cl)cc2Cl)cc2cnc(Nc3ccc(N4CCNCC4)c(F)c3)nc21` ?
inactive

Check the results log: what was the call for C=C1C(=O)O[C@@H]2/C=C(\CO)CC/C=C(\CO)[C@H](OC(C)=O)C(OC(=O)C(C)CC)C12 (some centres undefined) ?
inactive

Check the results log: what was the call for `O=C1COc2nccc(-c3ccccc3F)c2CN1Cc1cc(C(F)(F)F)cc(C(F)(F)F)c1` ?
inactive

Check the results log: what was the call for `Clc1cccc(COc2cncc(N3CCNCC3)n2)c1` ?
inactive

Check the results log: what was the call for `O=C(c1cc(Cc2n[nH]c(=O)c3ccccc23)ccc1F)N1CCCNCC1` ?
inactive

Check the results log: what was the call for `CCN(CCNC(=O)Nc1ccccc1Br)c1cccc(C)c1` ?
inactive

Check the results log: what was the call for `O=C(NCCO)c1cccc(-c2cc(Nc3ccc(OC(F)(F)F)cc3)ncn2)c1` ?
inactive

Check the results log: what was the call for `Cn1ncnc1[C@H]1c2n[nH]c(=O)c3cc(F)cc(c23)N[C@@H]1c1ccc(F)cc1` ?
active

Check the results log: what was the call for `CN(C)c1ccnc2sc3c(=O)n(N4CCCCCC4)cnc3c12` ?
inactive

Check the results log: what was the call for O=C(NCCCc1ccccc1)C1CCC(CNS(=O)(=O)c2cccc3nsnc23)CC1 (centres undefined) ?
inactive

Check the results log: what was the call for `O=c1[nH]c([C@@H]2CCCN2)nc2c1oc1ccc(Cl)cc12` ?
inactive

Check the results log: what was the call for COc1cc2c(cc1OC(C)C)[C@H](c1ccc(Cl)cc1)N(c1ccc(N(C)CC3CCC(N4CCN(C)C(=O)C4)CC3)cc1)C(=O)C2 (some centres undefined) ?
active

Check the results log: what was the call for `CCN1CCC[C@@H]1CNC(=O)c1ccc2c(c1)NC(=O)c1cccc(C)c1S2` ?
inactive

Check the results log: what was the call for `O=C1Nc2ccccc2-c2nc3ccccc3c(=O)n2-c2c(O)cccc21` ?
inactive

Check the results log: what was the call for `COc1cc2ncnc(Oc3ccc(CC(=O)Nc4cnn(C(C)C)c4)cc3)c2cc1OC` ?
inactive

Check the results log: what was the call for `O=C(N[C@H]1CCN(C(=O)c2cc(C(F)(F)F)cc(C(F)(F)F)c2)[C@H](Cc2ccc(Cl)cc2)C1)c1ccnc2ccccc12` ?
inactive

====

Target: Catechol O-methyltransferase (Homo sapiens) (UniProt P21964)
Sequence (P21964 whole entry, looked up): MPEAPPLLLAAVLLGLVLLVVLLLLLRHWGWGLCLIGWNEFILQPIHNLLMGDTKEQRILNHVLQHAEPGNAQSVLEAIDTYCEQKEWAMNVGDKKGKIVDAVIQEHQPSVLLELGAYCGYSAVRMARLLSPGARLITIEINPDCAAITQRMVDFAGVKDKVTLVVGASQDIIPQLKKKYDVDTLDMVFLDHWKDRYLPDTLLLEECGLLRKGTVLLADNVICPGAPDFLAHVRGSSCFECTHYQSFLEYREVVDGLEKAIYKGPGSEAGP
Assay: Confirmatory Screen for Target Class Profiling of Small Molecule Inhibitors of Methyltransferases (AID 1745852)
Conditions: MTase-Glo luminescence, SAH detection, recombinant enzyme; measured here: COMT max response; stronger effect = lower value
Recorded activity for the following compounds
Response body: numeric value in %, unit text excluded.

Examples from the recorded data:
1. NCC(CNc1nc(Nc2cccc(NC(=O)N3CCCC3)c2)ncc1I)C(=O)c1cccs1 (stereo unspecified) : -3.81
2. COc1c(CCC(=O)O)cccc1O[C@@H]1O[C@H](CO)[C@@H](O)[C@H](O)[C@H]1O : -74.9
3. O=S1(=O)CCN(Cc2cc(NCC3CCOCC3)c3[nH]c(-c4ccccc4)cc3c2)CC1 : -4.1
4. CC[C@H]1CN(c2nc(N)c(C(N)=O)nc2Cl)CCN1C1CCN(Cc2ccc(Cl)cc2)CC1 : -6.83

Which measured activity belongs to `O=C1NC(=O)C(c2cnc3ccccn23)=C1c1cn2c3c(cc(F)cc13)CN(C(=O)N1CCCCC1)CC2` , tested on Catechol O-methyltransferase (Homo sapiens) (UniProt P21964)?
-28.3

Which measured activity belongs to CNCCC(c1cccs1)c1ccc(O)c2ccccc12 (stereo unspecified) , tested on Catechol O-methyltransferase (Homo sapiens) (UniProt P21964)?
-4.76

====

System: HaCat
Experiment: Cytotoxic Profiling of Annotated Libraries Using Quantitative High-Throughput Screening (AID 1296008); also: nearly all actives have a fitted effect of over 60% in size
Details: Five cell lines viability, CellTiter-Glo ATP luminescence, 48-72 h
Results filed as inconclusive are left out. The source made the active and inactive calls. The call rests on the fitted dose curve; in most records, active means well fitted inhibition curve with a large enough effect; inconclusive means small, poorly fitted or top-dose-only effect; inactive means flat fitted curve, though single readings scatter.
Hello, when you answer, please use one of the following outcomes: active, inactive

Worked examples, 5 compounds total:
1) CN1CCN(C2=Nc3ccccc3Nc3ccc(OS(=O)(=O)C(F)(F)F)cc32)CC1 : inactive
2) COc1ccc2c(c1O[C@H]1CCNC1)CCC2 : inactive
3) CC(=O)OC1CC(C)(C(=O)O)CC2C3=CC(=O)C4C5(C)CCC(OC6OC(C(=O)O)C(O)C(O)C6OC6OC(C(=O)O)C(O)C(O)C6O)C(C)(C)C5CCC4(C)C3(C)CCC12C (stereo unspecified) : inactive
4) CC1=C(C(=O)Nc2cc(Cl)ccc2Cl)C(c2ccco2)C2=C(CCCC2=O)N1 (stereo unspecified) : inactive
5) O=C(Nc1nc2ccc([N+](=O)[O-])cc2s1)C1CCCCC1 : inactive

Kindly review the next compound as well.
Check the results log: what was the call for Oc1cccc(C2NC(=S)Nc3cccc(F)c32)c1 (stereo unspecified) ?
active

====

Assay: Primary fluorescence-based thiol-reactive (MSTI) qHTS assay for identification of artifact compounds. (AID 1845221);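 also: thiol-reactive compounds lower the probe fluorescence signal; nearly all actives have a fitted effect of over 65% in size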
Details: MSTI thiol-reactivity probe, 1 h; series mostly up to 53.8 µM
Inconclusive results are not listed. Activity calls are given as the source filed them. The call rests on the fitted dose curve; in most records, active means well fitted inhibition curve with a large enough effect; inconclusive means small, poorly fitted or top-dose-only effect; inactive means no such curve, though single readings can be large or run the other way.
Hello, when you answer, please use one of the following outcomes: True (active), False (inactive)

Worked examples, 4 molecules total:
1. CC(C)c1ccccc1OC(=O)NCCc1ccc2ccccc2c1 : False
2. CCCCNc1ncc(C(=O)NCc2ccc(-n3ccnc3)cc2)c(NC2CCC(O)CC2)n1 (stereo not given) : False
3. CN1CCN(Cc2ccc(NC(=O)Cc3ccc(Oc4cc(NC(=O)C5CC5)ncn4)cc3)cc2C(F)(F)F)CC1 : False
4. CC(C)C[C@H](C(=O)O)c1cc(-c2ccc(C(F)(F)F)cc2)cc(-c2ccc(C(F)(F)F)cc2)c1 : False

Check the results log: what was the call for `Cn1c(SCC(=O)N2CCC[C@H]2C(=O)Nc2ccccc2-c2ccccc2)nc2ccccc21` ?
False

====

Target: Cytochrome P450 2C9 (Homo sapiens)
Assay: Cytochrome P450 family 2 subfamily C member 9 (CYP2C9) small molecule antagonists: luciferase biochemical (cell-free) qHTS assay (AID 1645842); also: nearly all actives have a fitted effect of over 55% in size; also: potency is read from the fitted curve at half-maximal effect
Conditions: P450-Glo CYP2C9 enzyme assay, luciferin luminescence; series mostly up to 57.4 µM
Results filed as inconclusive are left out. Calls of active or inactive are those of the source. Calls come from the whole dose curve; as a rule, active = well fitted inhibition curve with a large enough effect in the repeat runs; inconclusive = weak or mixed curves; inactive = no such curve, though single readings can be large or run the other way.
Observed property: Potency

1) CCCC(CCC)C(N)=O : inactive
2) c1cc(NCCc2c[nH]c3ccccc23)cc(Nc2ccncc2)c1 : 674 nM (active)
3) C=CC(=O)N1CCCC(n2nc(-c3ccc(Oc4ccccc4)cc3)c3c(N)ncnc32)C1 (stereo not given) : 3790 nM (active)
4) CCOC(=O)[C@H](CCc1ccccc1)N[C@H]1CCCN2CCC[C@@H](C(=O)O)N2C1=O : inactive
5) Cn1c(=O)c2c(ncn2Cc2ccc(C(C)(C)C)cc2)n(C)c1=O : 23900 nM (active)

Entry `COc1cc(C(=O)NCC2(N(C)C)CCCC2)cc(OC)c1OCc1ccccc1` has what Potency?
inactive

Entry `CCNc1nc(Nc2cc(F)c(C(=O)N3CCOCC3)cc2OC)ncc1C(F)(F)F` has what Potency?
1900 nM (active)

Entry `CNc1cccc(CCOc2ccc3c(c2)CN(CC(F)(F)F)C(=O)[C@H](CC(=O)O)C3)n1` has what Potency?
inactive

Entry `N#Cc1cc(CN2CCC(Nc3ncnc4sc(Cl)cc34)CC2)ccc1F` has what Potency?
inactive

Entry `O=C(NCCN1CCN(c2cccc3ccc(O)cc23)CC1)c1ccc(F)cc1` has what Potency?
601 nM (active)

====

Assay: Primary qHTS for inhibitors of nuclear receptor binding SET domain protein 2 (NSD2) in an isogenic RCH-ACV NSD2 p.E1099K mutant (9B) (AID 1645876); also: nearly all actives have a fitted effect of over 70% in size
Settings: RCH-ACV (leukaemia line) NSD2 E1099K (9B) viability, CellTiter-Glo, 72 h; series mostly up to 44.9 µM
Results filed as inconclusive are left out. The source made the active and inactive calls. The call rests on the fitted dose curve; in most records, active means well fitted inhibition curve with a large enough effect; inconclusive means small, poorly fitted or top-dose-only effect; inactive means flat fitted curve, though single readings scatter.
Hello, when you answer, please use one of the following outcomes: label 1 for active, label 0 for inactive

Worked examples, 4 molecules total:
1) N[C@@H]1c2cccnc2[C@H](OC(=O)N2CCC(n3c(=O)[nH]c4ncccc43)CC2)CC[C@H]1c1cccc(F)c1F : label 0
2) NS(=O)(=O)c1ccc(N2CCN(CC[C@@H]3OCCc4ccccc43)CC2)cc1 : label 0
3) CN(C)CCOC(C)(c1ccccc1)c1ccc(Cl)cc1 (stereo not drawn) : label 1
4) N#Cc1cnc2c(Cl)cc(NCc3cn(CCN4CCCCCC4)nn3)cc2c1Nc1ccc(F)c(Cl)c1 : label 1

Check the results log: what was the call for `O=C(NCC1CCN(Cc2cccc(Cl)c2)CC1)[C@@H]1CCCN(c2ncnc3c2nc2n3CCCC2)C1` ?
label 0

Check the results log: what was the call for `CC(=O)OC[C@]12[C@H](OC(C)=O)[C@H](OC(=O)c3ccccc3)[C@@H]3[C@@H](OC(C)=O)[C@]1(OC3(C)C)[C@H](C)C[C@H](OC(C)=O)[C@@H]2OC(=O)c1ccccc1` ?
label 0

Check the results log: what was the call for `Cc1ccc(C)c(-c2cc(C(F)(F)F)nn2-c2ccc(S(N)(=O)=O)cc2)c1` ?
label 1

Check the results log: what was the call for `COc1cc(CN(CCN)C(=O)c2cccs2)ccc1OCc1ccccc1` ?
label 1
